Numbers sourced from the RNAGym collection of RNA variant scans (doi:10.7554/elife.80360).

B1: Twister Ribozyme (parent)
chain: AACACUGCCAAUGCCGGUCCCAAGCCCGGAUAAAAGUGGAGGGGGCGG

Variants of: B1
Experiment: self-cleavage, relative activity (ratio to wild type); higher = more cleavage; co-transcriptional
Below, each entry is listed with its recorded self-cleavage.

Some variants with recorded self-cleavage:
> print(dat)
    mutant.name  endpoint.name  experimental.result
 1    C27A A40G  self-cleavage                0.145
 2     C3G A32U  self-cleavage                0.593
 3    G41U G42C  self-cleavage                0.164
 4    G41C G44A  self-cleavage                0.211
 5     C3U C19A  self-cleavage               0.0875
 6    C21G G41C  self-cleavage                0.577
 7    G13A A33C  self-cleavage                0.825
 8    G45C G48C  self-cleavage                 0.89
 9    C14A G44C  self-cleavage                0.772
10     A2C C19A  self-cleavage               0.0459

Using the record for G39C A40G , report its self-cleavage.
0.164

Using the record for A4G G36C , report its self-cleavage.
0.182
